These entries and their values trace back to patent US20180171001A1.

Biological target: Env of HIV-1 strain X1254_c3 (HIV-1)
Test: cell-based or functional assay
List of neutralization IC50 values.

| binder | neutralization IC50 / µg/mL |
| --- | --- |
| γ3κ3 (antibody, V domains shown) VH: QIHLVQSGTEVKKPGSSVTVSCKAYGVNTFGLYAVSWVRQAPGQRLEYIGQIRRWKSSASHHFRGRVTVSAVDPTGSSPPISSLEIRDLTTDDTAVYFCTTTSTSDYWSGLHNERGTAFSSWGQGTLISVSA VL: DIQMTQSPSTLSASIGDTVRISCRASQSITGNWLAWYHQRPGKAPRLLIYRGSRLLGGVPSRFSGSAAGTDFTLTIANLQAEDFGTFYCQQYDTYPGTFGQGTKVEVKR | 1.82 |
| γ15κ3 (antibody, V domains shown) VH: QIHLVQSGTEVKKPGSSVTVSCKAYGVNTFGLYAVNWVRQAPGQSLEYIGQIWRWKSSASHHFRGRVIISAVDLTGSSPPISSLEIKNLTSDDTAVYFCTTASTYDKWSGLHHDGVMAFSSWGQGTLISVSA VL: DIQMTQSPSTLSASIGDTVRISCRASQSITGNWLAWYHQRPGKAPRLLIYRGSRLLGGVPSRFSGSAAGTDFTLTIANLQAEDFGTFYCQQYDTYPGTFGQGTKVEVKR | 3.49 |
| γ23κ5 (antibody, V domains shown) VH: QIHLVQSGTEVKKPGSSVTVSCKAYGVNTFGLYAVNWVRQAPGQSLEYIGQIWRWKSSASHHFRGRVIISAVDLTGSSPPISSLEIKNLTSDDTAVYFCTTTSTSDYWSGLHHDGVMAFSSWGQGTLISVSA VL: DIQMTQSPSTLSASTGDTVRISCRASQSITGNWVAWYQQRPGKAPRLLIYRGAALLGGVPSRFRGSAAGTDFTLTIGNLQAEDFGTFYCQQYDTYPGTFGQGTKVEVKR | 0.919 |
